# reported pIC50; entries follow
# assayed system: LK35.2-hPD-L1 cells / PE-labeled PD-1-Ig (Homo sapiens)
# Construct: expressed in transfected cells; host or cells: LK35.2 mouse B cell line
# Sequence (Q9NZQ7 19-290): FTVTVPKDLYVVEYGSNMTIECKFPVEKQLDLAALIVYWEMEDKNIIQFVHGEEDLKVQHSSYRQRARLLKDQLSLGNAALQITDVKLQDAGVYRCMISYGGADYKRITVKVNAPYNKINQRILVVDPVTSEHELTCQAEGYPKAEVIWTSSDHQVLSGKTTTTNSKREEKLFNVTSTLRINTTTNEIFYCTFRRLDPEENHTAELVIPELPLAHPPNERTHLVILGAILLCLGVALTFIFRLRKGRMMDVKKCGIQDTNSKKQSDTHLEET
# test method notes: LK35.2-hPD-L1 cell binding high-content screening assay
# Type: cell-based
# condition label: cell binding assay, cell line not given; cluster symbol; read-out: CBA IC50 cluster
# Protocol: LK35.2-hPD-L1 Cell Binding High-Content Screening Assay. Phycoerythrin (PE) was covalently linked to the Ig epitope tag of human PD-1-Ig and fluorescently-labeled PD-1-Ig was used for binding studies with a mouse B cell line (LK35.2) stably over-expressing human PD-L1 (LK35.2-hPD-L1). Briefly, 3×10^3 LK35.2-hPD-L1 cells were seeded into 384 well plates in 20 ul of RPMI supplemented with 10% fetal calf serum and cultured overnight. […]
pIC50: −log10 of the molar value. Positions of bridges follow the written chain, without caps; N, C: chain ends. Non-standard residues stand in square brackets, D forms with d. Residues, ends and D or L forms follow the SMILES beside them. ξ: configuration not given here. Bta = N[C@@H](Cc1csc2ccccc12)C(=O)O; Hyp = O=C(O)[C@@H]1C[C@@H](O)CN1; AllylGly = C=CC[C@H](N)C(=O)O; NMeNle = CCCC[C@H](NC)C(=O)O; NMeM = CN[C@@H](CCSC)C(=O)O; NMeA = CN[C@@H](C)C(=O)O; Dap = NC[C@H](N)C(=O)O; ξC = NC(CS)C(=O)O; Sar = CNCC(=O)O

C=CC[C@@H]1NC(=O)[C@H](Cc2c[nH]c3ccccc23)NC(=O)[C@@H]2CCCN2C(=O)[C@H](CC(C)C)NC(=O)[C@H](Cc2cnc[nH]2)NC(=O)[C@@H]2CCCN2C(=O)[C@H](CC(N)=O)NC(=O)[C@H](C)N(C)C(=O)[C@H](Cc2ccc(O)cc2)NC(=O)CSC[C@@H](C(=O)NCC(N)=O)NC(=O)[C@H](C)NC(=O)[C@H](CCCC)N(C)C(=O)[C@H](CCCC)N(C)C(=O)[C@H](Cc2c[nH]c3ccccc23)NC1=O [Example 7020] ({CH2CO}-Y[NMeA]NPHLPW[AllylGly]W[NMeNle][NMeNle]ACG-NH2; thioether N-14) ... 7.14 to 8.32

Looking up CCCC[C@H]1C(=O)N(C)[C@@H](CCCC)C(=O)N[C@@H](CC(=O)O)C(=O)N[C@H](C(=O)NCC(N)=O)CSCC(=O)N[C@@H](Cc2ccccc2)C(=O)N(C)[C@@H](C)C(=O)N[C@@H](CC(N)=O)C(=O)N2CCC[C@H]2C(=O)N[C@@H](Cc2cnc[nH]2)C(=O)N[C@@H](CC(C)C)C(=O)N(C)CC(=O)N[C@@H](Cc2c[nH]c3ccccc23)C(=O)N[C@@H](CO)C(=O)N[C@@H](Cc2c[nH]c3ccccc23)C(=O)N1C [Example 5030] ({CH2CO}-F[NMeA]NPHL[Sar]WSW[NMeNle][NMeNle]DCG-NH2; thioether N-14) , I see its pIC50 listed as < 7.13

Looking up CCCC[C@H]1C(=O)N[C@@H](CCCNC(=N)N)C(=O)NC(C(=O)NCC(N)=O)CSCC(=O)N[C@@H](Cc2ccc(O)cc2)C(=O)N(C)[C@@H](C)C(=O)N[C@@H](CC(N)=O)C(=O)N2CCC[C@H]2C(=O)N[C@@H](CN)C(=O)N[C@@H](CC(C)C)C(=O)N2C[C@H](O)C[C@H]2C(=O)N[C@@H](Cc2c[nH]c3ccccc23)C(=O)N[C@@H](CO)C(=O)N[C@@H](Cc2csc3ccccc23)C(=O)N(C)[C@@H](CCSC)C(=O)N1C (stereo partly shown) [Example 9092] ({CH2CO}-Y[NMeA]NP[Dap]L[Hyp]WS[Bta][NMeM][NMeNle]R[ξC]G-NH2; thioether N-14) , I see its pIC50 listed as 8.33 to 9.80

Looking up CCCC[C@H]1C(=O)N(C)[C@@H](CCCC)C(=O)N[C@@H](CCCNC(=N)N)C(=O)NC(C(=O)NCC(N)=O)CSCC(=O)N[C@@H](Cc2ccc(O)cc2)C(=O)N(C)[C@@H](C)C(=O)N[C@@H](CC(N)=O)C(=O)N2CCC[C@H]2C(=O)N[C@@H](CO)C(=O)N[C@@H](CC(C)C)C(=O)N2CCC[C@H]2C(=O)N[C@@H](Cc2c[nH]c3ccccc23)C(=O)N[C@@H](CO)C(=O)N[C@@H](Cc2c[nH]c3ccccc23)C(=O)N1C (stereo partly shown) [Example 9073] ({CH2CO}-Y[NMeA]NPSLPWSW[NMeNle][NMeNle]R[ξC]G-NH2; thioether N-14) , I see its pIC50 listed as 8.33 to 9.80
